Provenance of the data: patent US20230117470A1

- target-entity: human TLR9 (Homo sapiens, UniProt Q9NR96)
- Sequence (Q9NR96 26-1032): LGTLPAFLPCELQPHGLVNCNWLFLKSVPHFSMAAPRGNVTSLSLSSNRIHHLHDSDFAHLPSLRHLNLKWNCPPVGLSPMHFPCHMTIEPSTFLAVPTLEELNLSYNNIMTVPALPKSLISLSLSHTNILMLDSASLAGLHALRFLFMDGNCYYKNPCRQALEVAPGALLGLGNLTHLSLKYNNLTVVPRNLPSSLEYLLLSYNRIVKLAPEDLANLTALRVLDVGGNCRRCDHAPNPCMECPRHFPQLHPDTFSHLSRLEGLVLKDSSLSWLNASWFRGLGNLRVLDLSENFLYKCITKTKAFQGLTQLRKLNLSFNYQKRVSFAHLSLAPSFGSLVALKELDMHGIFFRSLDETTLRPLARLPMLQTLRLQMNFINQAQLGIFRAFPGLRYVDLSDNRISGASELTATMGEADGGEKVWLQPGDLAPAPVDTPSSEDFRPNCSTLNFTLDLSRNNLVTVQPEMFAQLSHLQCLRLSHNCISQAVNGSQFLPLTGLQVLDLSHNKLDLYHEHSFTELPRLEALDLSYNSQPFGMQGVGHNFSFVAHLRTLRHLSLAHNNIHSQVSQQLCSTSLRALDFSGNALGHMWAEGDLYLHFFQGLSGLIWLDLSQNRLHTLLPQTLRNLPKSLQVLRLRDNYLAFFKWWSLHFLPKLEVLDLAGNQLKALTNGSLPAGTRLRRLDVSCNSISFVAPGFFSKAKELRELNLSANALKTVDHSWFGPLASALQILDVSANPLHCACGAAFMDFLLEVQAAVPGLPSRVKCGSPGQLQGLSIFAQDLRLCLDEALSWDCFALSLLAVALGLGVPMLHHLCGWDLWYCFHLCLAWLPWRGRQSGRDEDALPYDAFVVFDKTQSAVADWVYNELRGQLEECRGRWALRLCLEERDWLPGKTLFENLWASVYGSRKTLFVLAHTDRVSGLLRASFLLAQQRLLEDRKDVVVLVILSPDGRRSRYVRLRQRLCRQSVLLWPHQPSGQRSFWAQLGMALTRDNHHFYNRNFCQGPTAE
- experimental-protocol: TLR9 inhibition reporter assay (HEK-Blue cells, SEAP reporter, ODN2006 stimulation)
- condition-set: HEK-Blue cells overexpressing human TLR9, SEAP reporter, ODN2006 5 nM
- Source text: TLR7/8/9 Inhibition Reporter Assays HEK-Blue™-cells (Invivogen) overexpressing human TLR7, TLR8 or TLR9 receptors were used for screening inhibitors of these receptors using an inducible SEAP (secreted embryonic alkaline phosphatase) reporter gene under the control of the IFN-β minimal promoter fused to five NF-κB and AP-1-binding sites. […]
Below, each entry is listed alongside its reported pIC50.
Give only the number. pIC50 is defined as minus log10 of concentration in molar units.

Look over these answered cases.
# compound, target-entity, pIC50
measured = [
    ("Cc1cc(-c2[nH]nc(CNC3CCN(C(C)C)CC3)c2C(C)C)cn2ncnc12", "human TLR9 (Homo sapiens, UniProt Q9NR96)", 5.23),
    ("CCC(CC)CN[C@H]1CC[C@H](NC(=O)c2n[nH]c(-c3cc(C)c4ncnn4c3)c2C(C)C)CC1", "human TLR9 (Homo sapiens, UniProt Q9NR96)", 5.24),
    ("Cc1cc(-c2[nH]nc(C3CCN(C(=O)CCN(C)C)CC3)c2C(C)C)cn2ncnc12", "human TLR9 (Homo sapiens, UniProt Q9NR96)", 4.70),
    ("COCCN(C)C1CCC(NC(=O)c2n[nH]c(-c3cc(C)c4ncnn4c3)c2C(C)C)CC1 (stereo not shown)", "human TLR9 (Homo sapiens, UniProt Q9NR96)", 4.87),
    ("Cc1cc(-c2[nH]nc(C(=O)N[C@H]3CC[C@@H](NC4COC4)CC3)c2C(C)C)cn2ncnc12", "human TLR9 (Homo sapiens, UniProt Q9NR96)", 5.19),
]

Okay, now this compound:
Challenge: Value lookup for pIC50; key = `CCN1CC(c2ccc(-c3n[nH]c(-c4cc(OC)c5ncnn5c4)c3C(C)C)cc2)C1`
Response given: 4.83
